Entry source: patent US11713335B2

Task for the reader: assign each of the following molecules its reported MIC.
Tested on: S. aureus MW2
assay.details: Minimal inhibitory concentration, S. aureus MW2
Format: cell-based
conditions.used: Staphylococcus aureus, MRSA, 16 h, 16 hour minimal inhibitory concentration at 37° C.; read-out: MIC (μM) S. aureus MW2 (MRSA)
# output: bare number, implied unit µM

The molecule identified as CO[C@@H]1[C@@H](OC(N)=O)[C@@H](O)[C@H](Oc2ccc3c(O)c(NC(=O)c4cccc(-c5ccccn5)c4)c(=O)oc3c2C)OC1(C)C [Compound 31] registered its MIC at 41

Input CO[C@@H]1[C@@H](OC(N)=O)[C@@H](O)[C@H](Oc2ccc3c(O)c(NC(=O)c4cccc(Oc5ccc(C)cc5)c4)c(=O)oc3c2C)OC1(C)C [Compound 221] . Output MIC: 10

MIC in this record for CO[C@@H]1[C@@H](OC(N)=O)[C@@H](O)[C@H](Oc2ccc3c(O)c(NC(=O)c4ccc(O)cc4)c(=O)oc3c2C)OC1(C)C [Compound 30] : 46

Lookup result for CO[C@@H]1[C@@H](OC(N)=O)[C@@H](O)[C@H](Oc2ccc3c(O)c(NC(=O)c4cccc(Br)c4)c(=O)oc3c2C)OC1(C)C [Compound 232] ; measured MIC: 82

MIC measured on CO[C@@H]1[C@@H](OC(N)=O)[C@@H](O)[C@H](Oc2ccc3c(O)c(NC(=O)c4cccc(-c5ccccc5F)c4)c(=O)oc3c2C)OC1(C)C [Compound 37] = 10
